Sourced from patent US20240418701A1

- tgt: MspA-PBA (phenylboronic acid modified hetero-octameric (N90C)1(M2)7 MspA) (Mycolicibacterium smegmatis, UniProt A0QR29, D117C/D118N/D120N/D145R/D161R/E166K)
- Construct: H6 (hexa-histidine) (C); 3-(maleimide) phenylboronic acid (MPBA) adduct on the thiol of Cys90; made in house; host or cells: E. coli BL21 (DE3) pLysS, co-expression from pETDuet-1
- Type: binding, Mycobacterium smegmatis
- conditions: NMP 200 μM in cis, +200 mV, three independent measurements
readout_name: 1/τon (s⁻¹)
Write the number in s⁻¹ without appending the unit.

Some molecules with known 1/τon results, for comparison:
• Nc1ccn([C@@H]2O[C@H](COP(=O)(O)O)[C@@H](O)[C@H]2O)c(=O)n1 [CMP, Cytidine-5′-monophosphate] = 0.47
• Nc1nc2c(ncn2[C@@H]2O[C@H](COP(=O)(O)O)[C@@H](O)[C@H]2O)c(=O)[nH]1 [GMP, guanosine-5′-monophosphate] = 0.50
• O=c1ccn([C@@H]2O[C@H](COP(=O)(O)O)[C@@H](O)[C@H]2O)c(=O)[nH]1 [UMP, uridine-5′-monophosphate] = 0.36

Problem: I am curious: what 1/τon value has been reported for Nc1ncnc2c1ncn2[C@@H]1O[C@H](COP(=O)(O)O)[C@@H](O)[C@H]1O [AMP, adenosine-5′-monophosphate] ?
Solution: 0.82

* * *

- tgt: MspA-PBA (phenylboronic acid modified hetero-octameric (N90C)1(M2)7 MspA) (Mycolicibacterium smegmatis, UniProt A0QR29, D117C/D118N/D120N/D145R/D161R/E166K)
- Construct: H6 (hexa-histidine) (C); 3-(maleimide) phenylboronic acid (MPBA) adduct on the thiol of Cys90; made in house; host or cells: E. coli BL21 (DE3) pLysS, co-expression from pETDuet-1
- Format: binding, Mycobacterium smegmatis
- conditions: NMP 400 μM in cis, +200 mV, three independent measurements
- Protocol: FIG. 46: Definition of event parameters. […] The measurement was carried out as described in Methods in Example 2. The chambers were filled with a 1.5 M KCl buffer (1.5 M KCl, 10 mM MOPS, pH 7.0). A transmembrane potential of +200 mV was continually applied. […] To describe NMP sensing events quantitatively, the event dwell time (τoff), the inter-event interval (τon), the percentage blockage (% Ib=(Ip−Ib)/Ip) and the noise amplitude (S.D.) were derived as described in FIG. 46. […]
Parameter: 1/τon. Scope: all listed entries.
Value expressed in s⁻¹; do not type the unit.

Reference set (3 entries):
- Nc1ccn([C@@H]2O[C@H](COP(=O)(O)O)[C@@H](O)[C@H]2O)c(=O)n1 [CMP, Cytidine-5′-monophosphate]: 0.86
- Nc1nc2c(ncn2[C@@H]2O[C@H](COP(=O)(O)O)[C@@H](O)[C@H]2O)c(=O)[nH]1 [GMP, guanosine-5′-monophosphate]: 0.83
- Nc1ncnc2c1ncn2[C@@H]1O[C@H](COP(=O)(O)O)[C@@H](O)[C@H]1O [AMP, adenosine-5′-monophosphate]: 1.19

Turning now to a further record.
Problem: Which 1/τon value belongs to O=c1ccn([C@@H]2O[C@H](COP(=O)(O)O)[C@@H](O)[C@H]2O)c(=O)[nH]1 [UMP, uridine-5′-monophosphate] ?
Solution: 0.56
